The next entries give measured IC50 for 4-aminobutyrate aminotransferase, mitochondrial (Rattus norvegicus, UniProt P50554).
Give bare numbers, in nM.

Batch lookup, IC50 per entry.
1. C/C(=N/NC(=O)CCCN)c1cccc(Cl)c1
2. O=C(O)CCCN=C(/C=C/c1ccccc1)/C=C/c1ccccc1
3. CCc1ccc2c(c1)/C(=N/c1cccc(C(=O)O)c1)c1ccccc1C2=O

Given back:
[91, 9950, 1210]
